Item-by-item account of % Inhibition (FS)
molecular target: β-secretase (BACE) (Homo sapiens); construct: purchased Panvera; test: BACE FS1% Inhibition Assay (Example 160); assay type: biochemical; conditions: 3 μM test compound

compound | relational operator | % Inhibition (FS) (%)
NC1=Nc2ccc(-c3ccccc3F)cc2CN1CCNC(=O)C1CCOCC1 [Compound 687] | = | 87
CN(C(=O)CC[C@@H](C1CCCCC1)N1Cc2ccc(Oc3ccccc3)cc2N=C1N)C1CCCCC1 [Compound 754] | = | 89
NC1=Nc2ccc(-c3ccccc3Cl)cc2CN1CCNC(=O)C1CCC(C(F)(F)F)CC1 (centres unmarked) [Compound 690] | = | 52
NC1=Nc2ccc(C3=CCCCC3)cc2CN1CCNC(=O)C1CCC(C(F)(F)F)CC1 (centres unmarked) [Compound 704] | < | 30
CC(C)CCC(=O)NCCN1Cc2cc(-c3ccc4ccccc4c3)ccc2N=C1N [Compound 668] | < | 30
CC(=O)N1CCC(C(=O)NCCN2Cc3cc(C4=CCCCC4)ccc3N=C2N)CC1 [Compound 705] | < | 30
CN(C(=O)CCC(C1CCOCC1)N1Cc2cc(Oc3ccccc3)ccc2N=C1N)C1CCC(C(=O)O)CC1 (centres unmarked) [Compound 743] | = | 130
COc1ccccc1-c1ccc2c(c1)CN([C@@H](CCC(=O)N(C)Cc1cc(-c3ccccc3)on1)C1CCCCC1)C(N)=N2 [Compound 719] | = | 81

* * *

biological target: β-secretase (BACE) (Homo sapiens, UniProt P56817); construct: purchased Panvera; assay: BACE FS1% Inhibition Assay (Example 160); type: biochemical; conditions: 3 μM test compound; read-out: % Inhibition (FS)
Sequence (P56817 46-501): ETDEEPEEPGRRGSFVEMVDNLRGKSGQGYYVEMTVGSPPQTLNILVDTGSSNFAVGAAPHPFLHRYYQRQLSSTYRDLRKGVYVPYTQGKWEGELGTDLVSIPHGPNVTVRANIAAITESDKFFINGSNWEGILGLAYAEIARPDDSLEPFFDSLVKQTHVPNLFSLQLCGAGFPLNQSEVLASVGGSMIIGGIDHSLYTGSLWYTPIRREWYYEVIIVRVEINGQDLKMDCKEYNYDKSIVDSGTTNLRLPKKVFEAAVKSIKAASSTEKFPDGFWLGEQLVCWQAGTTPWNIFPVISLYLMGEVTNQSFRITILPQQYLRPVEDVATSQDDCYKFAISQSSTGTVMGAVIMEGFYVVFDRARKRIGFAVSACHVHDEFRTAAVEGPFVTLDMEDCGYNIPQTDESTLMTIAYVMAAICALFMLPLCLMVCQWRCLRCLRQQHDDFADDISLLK
Item-by-item account of inhibition at 3 µM
property label: inhibition at 3 µM (%)

molecule | reported value
CN(C(=O)CC(C1CCCCC1)N1Cc2cc(Oc3ccccc3)ccc2N=C1N)C1CCCCC1 (stereo not drawn) | 82
CCCC(CCCC(=O)NC1CCCCC1)N1Cc2cc(Oc3ccccc3)ccc2N=C1N (stereo not drawn) | 68
CCCC(CCC(=O)NC1CCCCCC1)N1Cc2cc(Oc3ccccc3)ccc2N=C1N (stereo not drawn) | 97

* * *

target: β-secretase (BACE) (Homo sapiens, UniProt P56817); construct: purchased Panvera; assay: BACE FS1% Inhibition Assay (Example 160); type: biochemical; conditions: 0.3 μM test compound
property label: % Inhibition (FS) (%)

compound | readout units | reported value
COc1cccc(F)c1-c1ccc2c(c1)CN(CCNC(=O)C1CCOCC1)C(N)=N2 [Compound 699] | % | 31
Cc1ccccc1-c1ccc2c(c1)CN(CCNC(=O)CCC(C)C)C(N)=N2 [Compound 661] | % | 68
COC(=O)C(COCc1ccccc1)N(C)C(=O)CCC(C1CCCCC1)N1Cc2cc(Oc3ccccc3)ccc2N=C1N (stereo not shown) [Compound 780] | % | 69
NC1=Nc2ccc(-c3ccc4ccccc4c3)cc2CN1CCNC(=O)C12CC3CC(CC(C3)C1)C2 [Compound 665] | % | 35

* * *

Item-by-item account of % Inhibition (FS)
target: β-secretase (BACE) (Homo sapiens, UniProt P56817); construct: purchased Panvera; assay: BACE FS1% Inhibition Assay (Example 160); type: biochemical; settings: 0.3 μM test compound

molecule | readout units | relational operator | % Inhibition (FS)
NC1=Nc2ccc(-c3ccccc3)cc2CN1CCNC(=O)C1CCC(C(F)(F)F)CC1 (stereo not shown) [Compound 701] | % | < | 30
CN(C(=O)CCC(C)(C)N1Cc2cc(Oc3ccccc3)ccc2N=C1N)C1CCCCC1 [Compound 738] | % | = | 14
CC(CC(=O)NCCN1Cc2cc(-c3ccccc3Cl)ccc2N=C1N)C(F)(F)F (stereo not shown) [Compound 683] | % | = | 64
Cc1ccccc1-c1ccc2c(c1)CN(CCNC(=O)C1CCC(C(F)(F)F)CC1)C(N)=N2 (stereo not shown) [Compound 694] | % | < | 30

* * *

target: β-secretase (BACE) (Homo sapiens, UniProt P56817); construct: purchased Panvera; assay: BACE % Inhibition Assay (Example 161), (Aedens)-[…]-(Dabcyl K-amide) substrate; type: biochemical; details: 3 μM test compound; % error ±10%
Item-by-item account of % Inhibition

molecule | system name | readout units | % Inhibition
NC1=Nc2ccc(Oc3ccccc3)cc2CN1Cc1cccc(C(=O)N(C2CCCCC2)C2CCCCC2)c1 | β-secretase (BACE) (Homo sapiens, UniProt P56817) | % | 76
NC1=Nc2ccc(Oc3ccccc3)cc2CN1C(CCNC(=O)C1CCCCC1)C1CCCCC1 (centres unmarked) | β-secretase (BACE) (Homo sapiens, UniProt P56817) | % | 115
CCCC(CNC(=O)OC(C)(C)C)N1Cc2cc(Oc3ccccc3)ccc2N=C1N (centres unmarked) | β-secretase (BACE) (Homo sapiens, UniProt P56817) | % | 103
NC1=Nc2ccc(Oc3ccccc3)cc2CN1C(CCNC(=O)C1CCCC1)C1CCCCC1 (centres unmarked) | β-secretase (BACE) (Homo sapiens, UniProt P56817) | % | 120
CC(C)CC(=O)NCC(C1CCCCC1)N1Cc2cc(Oc3ccccc3)ccc2N=C1N (centres unmarked) | β-secretase (BACE) (Homo sapiens, UniProt P56817) | % | 120

* * *

biological target: β-secretase (BACE) (Homo sapiens, UniProt P56817); construct: purchased Panvera; experiment: BACE Assay-2 (Example 159), FS1 substrate, kinetic fluorescence; format: biochemical; conditions: procedure of Example 159
Item-by-item account of Ki
property label: Ki (µM)

molecule | property label | reported value
CC(C)(C)C(=O)NCC(C1CCCCC1)N1Cc2cc(Oc3ccccc3)ccc2N=C1N (stereo not shown) [Compound 317] | Ki | 0.18
CCCCCC(CCC(=O)NC1CCCCCC1)N1Cc2cc(Oc3ccccc3)ccc2N=C1N (stereo not shown) [Compound 150] | Ki | 0.46
CCC[C@H](CNC(=O)CCC(C)C)N1Cc2cc(Oc3ccccc3)ccc2N=C1N [Compound 603] | Ki | 0.033
CCCC(CCC(=O)NC1CCCCCC1)N1Cc2cc(Oc3ccccc3)ccc2N=C1N (stereo not shown) [Compound 128] | Ki | 0.13

* * *

biological target: β-secretase (BACE) (Homo sapiens, UniProt P56817); construct: purchased Panvera; experiment: BACE FS1% Inhibition Assay (Example 160); assay type: biochemical; conditions: 3 μM test compound
property label: % Inhibition (FS) (%)

molecule | system name | relational operator | reported value
CN(CCC#N)C(=O)CC[C@@H](C1CCCCC1)N1Cc2cc(-c3ccccc3F)ccc2N=C1N | β-secretase (BACE) (Homo sapiens, UniProt P56817) | = | 126
CN(C(=O)CCC(C1CCCCC1)N1Cc2cc(Oc3ccccc3)ccc2N=C1N)C1CCC(c2nn[nH]n2)CC1 (stereo not shown) | β-secretase (BACE) (Homo sapiens, UniProt P56817) | < | 30
NC1=Nc2ccc(-c3ccccc3Cl)cc2CN1CCNC(=O)CCC(F)(F)F | β-secretase (BACE) (Homo sapiens, UniProt P56817) | = | 97
Cc1ccccc1-c1ccc2c(c1)CN(CCNC(=O)C1CCC(C(F)(F)F)CC1)C(N)=N2 (stereo not shown) | β-secretase (BACE) (Homo sapiens, UniProt P56817) | = | 84
CC(C)C(CNC(=O)C12CC3CC(CC(C3)C1)C2)N1Cc2cc(Oc3ccccc3)ccc2N=C1N (stereo not shown) | β-secretase (BACE) (Homo sapiens, UniProt P56817) | = | 128
NC1=Nc2ccc(-c3ccc4ccccc4c3)cc2CN1CCNC(=O)CCC(F)(F)F | β-secretase (BACE) (Homo sapiens, UniProt P56817) | = | 80
NC1=Nc2ccc(-c3ccccc3F)cc2CN1CCNC(=O)C1CCC(C(F)(F)F)CC1 (stereo not shown) | β-secretase (BACE) (Homo sapiens, UniProt P56817) | = | 81
NC1=Nc2ccc(-c3ccc4ccccc4c3)cc2CN1CCNC(=O)C12CC3CC(CC(C3)C1)C2 | β-secretase (BACE) (Homo sapiens, UniProt P56817) | < | 30
NC1=Nc2ccc(-c3cnc4ccccc4c3)cc2CN1CCNC(=O)C12CC3CC(CC(C3)C1)C2 | β-secretase (BACE) (Homo sapiens, UniProt P56817) | < | 30
CCCC(=O)NCCN1Cc2cc(-c3ccc4ccccc4c3)ccc2N=C1N | β-secretase (BACE) (Homo sapiens, UniProt P56817) | < | 30
CN(C(=O)CCC(C1CCCCC1)N1Cc2cc(Oc3ccccc3)ccc2N=C1N)C1CCC(C(=O)OCc2ccccc2)CC1 (stereo not shown) | β-secretase (BACE) (Homo sapiens, UniProt P56817) | = | 89
COC1CCCC(C(=O)NCCN2Cc3cc(C4=CCCC4)ccc3N=C2N)C1 (stereo not shown) | β-secretase (BACE) (Homo sapiens, UniProt P56817) | < | 30
NC1=Nc2ccc(-c3ccccc3F)cc2CN1CCNC(=O)CCC(F)(F)F | β-secretase (BACE) (Homo sapiens, UniProt P56817) | = | 90
NC1=Nc2ccc(-c3cnc4ccccc4c3)cc2CN1CCNC(=O)C1CCCC1 | β-secretase (BACE) (Homo sapiens, UniProt P56817) | < | 30
CCCCC(CC)C(=O)NCCN1Cc2cc(-c3ccc4ccccc4c3)ccc2N=C1N (stereo not shown) | β-secretase (BACE) (Homo sapiens, UniProt P56817) | = | 32
CCCCCC(CCC(=O)NC1CCCCC1)N1Cc2cc(Oc3ccccc3)ccc2N=C1N (stereo not shown) | β-secretase (BACE) (Homo sapiens, UniProt P56817) | = | 111
NC1=Nc2ccc(C3=CCCC3)cc2CN1CCNC(=O)C1CCC(C(F)(F)F)CC1 (stereo not shown) | β-secretase (BACE) (Homo sapiens, UniProt P56817) | < | 30
CN(C(=O)CC[C@@H](C1CCOCC1)N1Cc2cc(Oc3ccccc3)ccc2N=C1N)[C@H]1CC[C@H](C(=O)O)CC1 | β-secretase (BACE) (Homo sapiens, UniProt P56817) | = | 112
NC1=Nc2ccc(-c3cnc4ccccc4c3)cc2CN1CCNC(=O)C1CCC1 | β-secretase (BACE) (Homo sapiens, UniProt P56817) | = | 44
COc1ccc(C(CCC(=O)N(C)C2CCCCC2)N2Cc3cc(Oc4ccccc4)ccc3N=C2N)cc1 (stereo not shown) | β-secretase (BACE) (Homo sapiens, UniProt P56817) | = | 110
Cc1ccccc1-c1ccc2c(c1)CN(CCNC(=O)CCC(F)(F)F)C(N)=N2 | β-secretase (BACE) (Homo sapiens, UniProt P56817) | = | 99
CC(C)[C@H](CNC(=O)C1CCCCC1)N1Cc2cc(Oc3ccccc3)ccc2N=C1N | β-secretase (BACE) (Homo sapiens, UniProt P56817) | = | 125
COc1ccccc1-c1ccc2c(c1)CN(CCNC(=O)C1CCOCC1)C(N)=N2 | β-secretase (BACE) (Homo sapiens, UniProt P56817) | = | 63
COc1ccccc1-c1ccc2c(c1)CN([C@@H](CCC(=O)N(C)Cc1cnn(-c3ccccc3)c1)C1CCCCC1)C(N)=N2 | β-secretase (BACE) (Homo sapiens, UniProt P56817) | = | 72
CN(Cc1cc(-c2ccccc2)on1)C(=O)CC[C@@H](C1CCCCC1)N1Cc2cc(-c3ccccc3F)ccc2N=C1N | β-secretase (BACE) (Homo sapiens, UniProt P56817) | = | 65
CCCCC(CC)C(=O)NCCN1Cc2cc(-c3cnc4ccccc4c3)ccc2N=C1N (stereo not shown) | β-secretase (BACE) (Homo sapiens, UniProt P56817) | = | 44
CC(=O)N1CCC(C(=O)NCCN2Cc3cc(-c4ccccc4Cl)ccc3N=C2N)CC1 | β-secretase (BACE) (Homo sapiens, UniProt P56817) | = | 51
CC(=O)N1CCC(C(=O)NCCN2Cc3cc(-c4ccccc4)ccc3N=C2N)CC1 | β-secretase (BACE) (Homo sapiens, UniProt P56817) | < | 30
CC(=O)N1CCC(C(=O)NCCN2Cc3cc(-c4ccccc4C)ccc3N=C2N)CC1 | β-secretase (BACE) (Homo sapiens, UniProt P56817) | = | 54
COc1ccccc1-c1ccc2c(c1)CN(CCNC(=O)C1CCC(C(F)(F)F)CC1)C(N)=N2 (stereo not shown) | β-secretase (BACE) (Homo sapiens, UniProt P56817) | = | 64
NC1=Nc2ccc(-c3ccc4ccccc4c3)cc2CN1CCNC(=O)C1CCCC1 | β-secretase (BACE) (Homo sapiens, UniProt P56817) | < | 30
COC1CCCC(C(=O)NCCN2Cc3cc(-c4ccccc4)ccc3N=C2N)C1 (stereo not shown) | β-secretase (BACE) (Homo sapiens, UniProt P56817) | = | 83
CNC(=O)C1CCC(N(C)C(=O)CCC(C2CCCCC2)N2Cc3cc(Oc4ccccc4)ccc3N=C2N)CC1 (stereo not shown) | β-secretase (BACE) (Homo sapiens, UniProt P56817) | = | 97
NC1=Nc2ccc(-c3ccccc3)cc2CN1CCNC(=O)C1CCC(C(F)(F)F)CC1 (stereo not shown) | β-secretase (BACE) (Homo sapiens, UniProt P56817) | = | 54

Data credit: patent US8436006B2
